Test system: LC4-1
METHOD_NOTES: selective drug sensitivity score (sDSS, relative to normal bone marrow) (sDSS (score)); higher = more potent and effective on the cell line relative to normal bone marrow cells;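 note: ALL cell lines in 384-well plates, five doses spanning 10,000-fold, each plate scaled between vehicle and 100 µmol/L benzalkonium chloride controls, sDSS an adapted area-under-curve metric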
CONDITION: 72 h
// reported selective drug sensitivity score per item
Lab note: record the figure alone, no unit after it.

• CCN(CC)CCCC(C)Nc1ccnc2cc(Cl)ccc12 (stereo not given) [Chloroquine] (top concentration 100000 nM) = -3.74
• NC(=O)c1cccc(-c2cccc(OC(=O)NC3CCCCC3)c2)c1 [URB597] (top concentration 1000 nM) = 0.44
• CC(C)(C)c1cnc(CSc2cnc(NC(=O)C3CCNCC3)s2)o1 [SNS-032] (top concentration 10000 nM) = -3.24
• Nc1cccc2c1CN(C1CCC(=O)NC1=O)C2=O (stereo not given) [Lenalidomide] (top concentration 100000 nM) = -0.58
• COc1cc(N2CCC(N3CCN(C)CC3)CC2)ccc1Nc1ncc(Cl)c(Nc2ccccc2P(C)(C)=O)n1 [Brigatinib] (top concentration 1000 nM) = -0.94

So for C=C1C[C@@H]2CC[C@@]34C[C@H]5O[C@H]6[C@@H](O3)[C@H]3O[C@H](CC[C@@H]3O[C@H]6[C@H]5O4)CC(=O)C[C@@H]3[C@@H](OC)[C@@H](C[C@H](O)CN)O[C@H]3C[C@H]3O[C@@H](CC[C@@H]1O2)C[C@@H](C)C3=C [Eribulin] (top concentration 1000 nM) , the logged selective drug sensitivity score turned out to be 24

So, Cc1ncc(-c2ccnc(Nc3ccc(S(C)(=O)=O)cc3)n2)n1C(C)C [AZD-5438] (top concentration 10000 nM) ? Its selective drug sensitivity score was 0.44

Cn1cncc1[C@@](N)(c1ccc(Cl)cc1)c1ccc2c(c1)c(-c1cccc(Cl)c1)cc(=O)n2C [Tipifarnib] (top concentration 10000 nM) yielded selective drug sensitivity score of 1.6

selective drug sensitivity score for CC1CCC(n2c3cnccc3c3cnc(Nc4ccc5c(n4)CCN(C(=O)CO)C5)nc32)CC1 (stereo not given) [AMG-925] (top concentration 1000 nM) is 9.24

====

System: KASUMI-2
METHOD_NOTES: selective drug sensitivity score (sDSS, relative to normal bone marrow) (sDSS (score)); higher = more potent and effective on the cell line relative to normal bone marrow cells
CONDITION: 72 h
# selective drug sensitivity score listing for each entry below

Some solved entries appear below for comparison.
- Nc1ccn([C@@H]2O[C@H](CO)[C@@H](O)[C@@H]2O)c(=O)n1 [Cytarabine] (top concentration 10000 nM): 16.6
- Cc1cnc(NC(=O)Nc2cc(Br)c(C)cc2OC[C@@H]2CNCCO2)cn1 [Rabusertib] (top concentration 1000 nM): -0.74
- COc1cc(NS(C)(=O)=O)ccc1Nc1c2ccccc2nc2ccccc12 [Amsacrine] (top concentration 10000 nM): 21.7
- COc1cc(C)[nH]c(=O)c1CNC(=O)c1c(C)n([C@H](C)C2CCOCC2)c2ccccc12 [CPI-360] (top concentration 10000 nM): 0
- C[C@@H](Oc1cc(-c2cnn(C3CCNCC3)c2)cnc1N)c1c(Cl)ccc(F)c1Cl [Crizotinib] (top concentration 1000 nM): -0.54
- O=C(O)C(=O)O.[NH-][C@@H]1CCCC[C@H]1[NH-].[Pt+2] [Oxaliplatin] (top concentration 100000 nM): 12.8

Shifting focus to the compound that follows.
For record CC(C)c1cc(-c2n[nH]c(=O)n2-c2ccc3c(ccn3C)c2)c(O)cc1O [Ganetespib] (top concentration 1000 nM) the listed selective drug sensitivity score is 6.04

====

Each entry below lists one item and its recorded selective drug sensitivity score value.
Tested on: PF-382
METHOD_NOTES: selective drug sensitivity score (sDSS, relative to normal bone marrow) (sDSS (score)); higher = more potent and effective on the cell line relative to normal bone marrow cells
CONDITION: 72 h
Answer with the value's number alone.

Previously resolved entries follow.
* Nc1ncn([C@@H]2O[C@H](CO)[C@@H](O)[C@H]2O)c(=O)n1 [Azacitidine] (top concentration 10000 nM) | 4.44
* O=C(c1cc(Cc2n[nH]c(=O)c3ccccc23)ccc1F)N1CCN(C(=O)C2CC2)CC1 [Olaparib] (top concentration 10000 nM) | -0.52
* COc1cc(Br)c(Nc2nc(-c3c(C)nc4ncccn34)cs2)c(Br)c1 [PTC-209] (top concentration 10000 nM) | -0.68

// sample O=c1[nH]c(C2CCCN2)nc2c1oc1ccc(Cl)cc12 (configuration not stated) (top concentration 10000 nM) , its selective drug sensitivity score was 2.4

The molecule O=C(NC1CCNCC1)c1n[nH]cc1NC(=O)c1c(Cl)cccc1Cl [AT7519] (top concentration 10000 nM) showed selective drug sensitivity score equal to -7.16

# molecule CC(C)C[C@H](NC(=O)CNC(=O)c1cc(Cl)ccc1Cl)B(O)O [Ixazomib] (top concentration 1000 nM) ; its selective drug sensitivity score = 7.86

Entry Oc1ncnc2[nH]ncc12 [Allopurinol] (top concentration 10000 nM) , selective drug sensitivity score reported as -0.64

====

Tested on: KOPN-8
METHOD_NOTES: selective drug sensitivity score (sDSS, relative to normal bone marrow) (sDSS (score)); higher = more potent and effective on the cell line relative to normal bone marrow cells
CONDITION: 72 h
Lab note: compare selective drug sensitivity score against 3. Equal or greater, write 1.0. Smaller, write 0.0.

Worked examples follow.
• COc1cccc2c1C(=O)c1c(O)c3c(c(O)c1C2=O)C[C@@](O)(C(=O)CO)C[C@@H]3O[C@H]1C[C@H](N)[C@H](O)[C@H](C)O1 [Doxorubicin] (top concentration 1000 nM) = 1.0
• Cn1cnc2c(F)c(Nc3ccc(Br)cc3F)c(C(=O)NOCCO)cc21 [Binimetinib] (top concentration 1000 nM) = 1.0
• CCNC(=O)CCC/C=C\C[C@@H]1[C@@H](/C=C/[C@@H](O)CCc2ccccc2)[C@H](O)C[C@@H]1O [Bimatoprost] (top concentration 5500 nM) = 0.0
• Cc1sc2c(c1C)C(c1ccc(Cl)cc1)=N[C@@H](CC(=O)Nc1ccc(O)cc1)c1nnc(C)n1-2 [Birabresib] (top concentration 10000 nM) = 1.0
• CCCOc1ccn2c(C(C)=O)cc(-c3ccccc3S(C)(=O)=O)c2c1 [GSK2801] (top concentration 10000 nM) = 0.0
• CC#CC(=O)N1CCC[C@H]1c1nc(-c2ccc(C(=O)Nc3ccccn3)cc2)c2c(N)nccn12 [Acalabrutinib] (top concentration 1000 nM) = 0.0

For this molecule, is measured selective drug sensitivity score 3 or higher? COc1cc2c(Oc3ccc(NC(=O)C4(C(=O)Nc5ccc(F)cc5)CC4)cc3F)ccnc2cc1OCCCN1CCOCC1 [Foretinib] (top concentration 1000 nM)
1.0

Decide: is the reported value of selective drug sensitivity score for O=C(O)C(=O)O.[NH-][C@@H]1CCCC[C@H]1[NH-].[Pt+2] [Oxaliplatin] (top concentration 100000 nM) equal to or greater than 3?
1.0

Tell me whether selective drug sensitivity score is at least 3 here: Cn1ncc(Cl)c1-c1cc(C(=O)N[C@H](CN)Cc2cccc(F)c2)sc1Cl [Afuresertib] (top concentration 1000 nM)
1.0

Check the entry Cc1cc(-c2ncc(CC(=O)Nc3ccc(-c4cnccn4)cn3)cc2C)ccn1 [NVP-LGK974] (top concentration 10000 nM) : does selective drug sensitivity score equal or exceed 3?
0.0

# bool: selective drug sensitivity score of NCC(=O)Nc1ccc(-n2nc(C(F)(F)F)cc2-c2ccc3c(ccc4ccccc43)c2)cc1 (top concentration 25000 nM) >= 3
1.0

Reported selective drug sensitivity score at or above 3? COc1cc(Nc2ncc(F)c(Nc3ccc4c(n3)N(COP(=O)(O)O)C(=O)C(C)(C)O4)n2)cc(OC)c1OC [Fostamatinib] (top concentration 2500 nM)
1.0

====

Recorded selective drug sensitivity score for the following molecules
System: PEER
METHOD_NOTES: selective drug sensitivity score (sDSS, relative to normal bone marrow) (sDSS (score)); higher = more potent and effective on the cell line relative to normal bone marrow cells
CONDITION: 72 h

- C#Cc1cccc(Nc2ncnc3cc4c(cc23)OCCOCCOCCO4)c1 [Icotinib] (top concentration 10000 nM): 0.7
- CNCc1ccc(-c2[nH]c3cc(F)cc4c3c2CCNC4=O)cc1 [Rucaparib] (top concentration 10000 nM): -0.08
- Cc1cnc(NC(=O)Nc2cc(Br)c(C)cc2OC[C@@H]2CNCCO2)cn1 [Rabusertib] (top concentration 1000 nM): -0.74

// below: selective drug sensitivity score requested for another molecule
Value of measured selective drug sensitivity score for the entry COCCNCc1ccc(-c2cc3nccc(Oc4ccc(NC(=S)NC(=O)Cc5ccc(F)cc5)cc4F)c3s2)nc1 [Glesatinib] (top concentration 2500 nM) : 4.54

====

Tested on: CCRF-CEM
METHOD_NOTES: selective drug sensitivity score (sDSS, relative to normal bone marrow) (sDSS (score)); higher = more potent and effective on the cell line relative to normal bone marrow cells
CONDITION: 72 h
Listed here: items and their measured selective drug sensitivity score.

A selection of reference data follows.
* NS(=O)(=O)OC[C@@H]1C[C@@H](n2ccc3c(N[C@H]4CCc5ccccc54)ncnc32)C[C@@H]1O [Pevonedistat] (top concentration 10000 nM) | 16.4
* COc1cc2/c(=N/c3ccc(Br)cc3F)nc[nH]c2cc1OCC1CCN(C)CC1 [Vandetanib] (top concentration 1000 nM) | -0.22
* COc1cccc(OCCCN)c1-c1cc(Nc2cnc(C#N)cn2)n[nH]1 [Prexasertib] (top concentration 10000 nM) | 18.8
* N#Cc1ccnc(N2C(=O)CC[C@H]2C(=O)N(c2cncc(F)c2)[C@H](C(=O)NC2CC(F)(F)C2)c2ccccc2Cl)c1 [Ivosidenib] (top concentration 10000 nM) | 1
* CC[C@H](C)C(=O)O[C@H]1C[C@H](O)C=C2C=C[C@H](C)[C@H](CC[C@@H](O)C[C@@H](O)CC(=O)O)[C@H]21 [Pravastatin] (top concentration 10000 nM) | -0.46
* CCN1C(=O)CNc2ncc(-c3ccc(-c4nc[nH]n4)nc3C)nc21 [CC-115] (top concentration 10000 nM) | 4.24

// assay CCRF-CEM, entry C=CC(=O)N1CCC(Oc2cc3c(Nc4ccc(Cl)c(Cl)c4F)ncnc3cc2OC)CC1 [Poziotinib] (top concentration 1000 nM) , selective drug sensitivity score value = -0.22

Entry Cc1cc(F)c(C(=O)Nc2cccc(-c3nncn3C(C)C)n2)cc1-n1cnc(C2CC2)c1 [Selonsertib] (top concentration 1000 nM) ; assay system CCRF-CEM; selective drug sensitivity score recorded at 0
